protocol: Inhibition of pre-miR-372 biogenesis in human AGS cells
Format: cell-based
pIC50: −log10 of the molar value.
reported.property: pIC50

>>> df
                           query_smiles  value_measured
0  O=c1[nH]cccc1-c1nc(-c2cccc(Cl)c2)no1           ~6.00

###

protocol: Binding affinity to bacteria RNA by HTS method
reported.property: Kd (µM)

>>> print(df.to_string())
                               query_smiles  value_measured
0  NCC[C@@H](NC(=O)c1ccc(-c2cccc(NC(=O)c3ccc4nc(O)c(O)nc4c3)c2)o1)C(=O)N1CCNCC1             6.5

###

experimental.system: RNA
protocol: Binding affinity to RNA (unknown origin) by fluorescence based analysis
pKd: −log10 of the molar value.
reported.property: pKd

>>> print(df.to_string())
          query_smiles  value_measured
0  Nc1nc2[nH]nc(N)n2n1            3.43
1         Nc1csc(Br)n1            3.19
2      Cc1nc(N)nc(N)n1            3.96
3         Nc1ccnc(N)n1            4.10

###

protocol: Binding affinity to HIV1 TAR RNA assessed as inhibition of Tat-mediated transactivation
Type: functional, Human immunodeficiency virus 1
pIC50: −log10 of the molar value.
Entries and their pIC50 values follow.
reported.property: pIC50

              query_smiles  reported_property  value_measured
0    Nc1ccc2nc(N)nc(N)c2c1              pIC50            4.40
1  NC1=Nc2cccc3cccc(c23)N1              pIC50            4.30
2       Nc1ccc2ccnc(N)c2c1              pIC50            3.82

###

protocol: Binding affinity to pre-miR-372 (unknown origin)
reported.property: Kd (nM)

>>> df
                           query_smiles  reported_property  value_measured
0  O=c1[nH]cccc1-c1nc(-c2cccc(Cl)c2)no1                 Kd             300

###

pKd: recorded values
protocol: Binding affinity to pri-miR-96 (unknown origin)
pKd: −log10 of the molar value.
reported.property: pKd

query.smiles	value.measured
CN1CCN(c2ccc3nc(-c4ccc5[nH]c(-c6cccc(OCCCC(=O)NCCN=[N+]=[N-])c6)nc5c4)[nH]c3c2)CC1	5.89
CCCN(CC(=O)N(CCC)CC(=O)N(CC(N)=O)Cc1cn(CCCNC(=O)CCCOc2c(C(C)(C)C)cc(-c3nc4cc(N5CCN(C)CC5)ccc4[nH]3)cc2C(C)(C)C)nn1)C(=O)CCCOc1cccc(-c2nc3ccc(-c4nc5ccc(N6CCN(C)CC6)cc5[nH]4)cc3[nH]2)c1	7.07
CN1CCN(c2ccc3nc(-c4cc(C(C)(C)C)c(OCCCC(=O)NCCCN=[N+]=[N-])c(C(C)(C)C)c4)[nH]c3c2)CC1	5.82

###

protocol: Binding affinity to Escherichia coli ThiM TPP riboswitch
Decision: Kd beneath 20 µM gives satisfied; Kd meeting or exceeding 20 µM gives not satisfied.

>>> print(df.to_string())
                           query_smiles  classification
0               Cc1ncc(CN=[N+]=[N-])cn1   not satisfied
1                    c1cc(N2CCNCC2)ccn1   not satisfied
2                       Nc1ccc2nccnc2c1   not satisfied
3  c1cc(N2CCNCC2)c(NCc2ccc3nccnc3c2)cn1       satisfied
4                       OCc1ccc2nsnc2c1   not satisfied
5                      CNCc1cc2cccnc2s1   not satisfied

###

experimental.system: Sulfhydryl oxidase 1 (Homo sapiens, UniProt O00391)
Sequence (O00391 whole entry): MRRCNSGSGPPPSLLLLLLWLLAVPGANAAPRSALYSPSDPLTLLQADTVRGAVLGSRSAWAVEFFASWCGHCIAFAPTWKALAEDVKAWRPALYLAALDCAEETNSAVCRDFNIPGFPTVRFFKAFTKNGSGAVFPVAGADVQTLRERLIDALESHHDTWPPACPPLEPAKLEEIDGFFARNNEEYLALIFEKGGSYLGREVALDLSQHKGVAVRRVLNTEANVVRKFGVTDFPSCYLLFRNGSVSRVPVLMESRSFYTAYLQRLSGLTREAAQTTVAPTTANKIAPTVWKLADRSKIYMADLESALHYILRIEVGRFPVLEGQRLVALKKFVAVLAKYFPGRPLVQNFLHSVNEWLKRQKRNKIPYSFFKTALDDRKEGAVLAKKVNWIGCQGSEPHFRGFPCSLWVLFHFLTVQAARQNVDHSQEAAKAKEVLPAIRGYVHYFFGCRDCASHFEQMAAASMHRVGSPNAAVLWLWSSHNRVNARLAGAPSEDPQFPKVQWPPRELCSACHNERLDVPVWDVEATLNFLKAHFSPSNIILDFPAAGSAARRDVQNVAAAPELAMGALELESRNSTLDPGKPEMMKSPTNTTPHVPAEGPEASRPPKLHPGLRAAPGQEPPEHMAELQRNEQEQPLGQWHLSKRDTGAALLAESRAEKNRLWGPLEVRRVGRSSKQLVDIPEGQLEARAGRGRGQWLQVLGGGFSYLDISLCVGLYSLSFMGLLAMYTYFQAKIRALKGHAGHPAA
protocol: Binding affinity to QSOX1 in human MDA-MB-231 cells
reported.property: Kd (µM)

In [3]: df
Out[3]:
                               query_smiles  value_measured
0  CCOC(=O)C1=C(Nc2ccccc2)S/C(=C\c2ccc(OCCOCCOCCOCCNC(=O)CCC(=O)N(C)[C@H]3CC[C@@H](c4ccc(Cl)c(Cl)c4)c4ccccc43)c(O)c2)C1=O              16

###

protocol: Binding affinity to HIV-1 RNA by SPR analysis
Parameters: species or system Human immunodeficiency virus 1
pKd: −log10 of the molar value.
reported.property: pKd

query.smiles	value.measured
CCc1nc2ccccc2cc1C(=O)N[C@@H](CSSC[C@H](NC(=O)c1cc2ccccc2nc1CC)C(=O)N1CCC[C@H]1C(=O)N[C@@H](Cc1ccccc1)C(=O)NCCCCCC(N)=O)C(=O)N1CCC[C@H]1C(=O)N[C@@H](Cc1ccccc1)C(=O)NCCCCCC(N)=O	5.39
COc1ccc2nc3cc(F)ccc3c(Nc3ccc(C(=O)Nc4ccncc4)cc3)c2c1	6.00
CCc1nc2cc3ccccc3cc2cc1C(=O)N(C)[C@@H](CCn1cc(C[C@@H](C(=O)N2CCC[C@H]2C(=O)N(C)[C@@H](Cc2ccccc2)C(=O)NCCCN)N(C)C(=O)c2cc3cc4ccccc4cc3nc2CC)nn1)C(=O)N1CCC[C@H]1C(=O)N(C)[C@@H](Cc1ccccc1)C(=O)NCCCN	7.80
COc1ccc2nc3cc(F)ccc3c(N)c2c1	4.23
